Hey, just so you know, these numbers are from patent US20100292260A1.

- tested_system: HIV-1 (recombinant) reverse transcriptase (Human immunodeficiency virus type 1 group M subtype B)
- Construct: 20-50 nM HIV-1 (recombinant) reverse transcriptase
- method_description: Enzyme test: reverse transcription reaction in vitro with recombinant RT, wild type
- Type: biochemical
- condition_summary: Table 2; enzyme test; read-out: WT
Each entry below carries its reported pIC50.
Note on units: pIC50 is unitless, being -log10 of a concentration expressed in mol/L.

Cc1c(Cc2c(F)cccc2F)nc(SCC=Cc2ccc([N+](=O)[O-])cc2)[nH]c1=O [Compound 26i]    4.93
Cc1c(C(C)c2c(F)cccc2F)nc(SCC=Cc2ccc(C#N)cc2)[nH]c1=O (stereo not shown) [Compound 26o]    6.79
CCc1c(Cc2c(Cl)cccc2Cl)nc(SCC=Cc2ccc(C#N)cc2)[nH]c1=O [Compound 26c]    6.73

Now for another entry.
# pIC50 of Cc1c(Cc2c(Cl)cccc2Cl)nc(SCC=Cc2ccc([N+](=O)[O-])cc2)[nH]c1=O [Compound 26b] = 5.42

* * *

- method_description: Cytotoxicity in mock-infected MT-4 cells (MTT)
- Format: cell-based
- condition_summary: human
readout_label: CC50 at 5 days (µM)
# number only, unit µM dropped from output

# annotated cases, reported CC50 at 5 days shown
C=Cc1cc(N(C)C)nc(S(C)(=O)=O)n1    110
CCc1c(C(C)c2c(F)cccc2F)nc(SCC=Cc2ccc(OC)cc2)[nH]c1=O (stereo not shown) [Compound 26p]    5.54
CCc1c(C(C)c2c(F)cccc2F)nc(SCC=Cc2ccc(C#N)cc2)[nH]c1=O (stereo not shown) [Compound 26r]    27.2

# CC50 at 5 days of CCc1c(C(C)c2c(F)cccc2F)nc(SCC=Cc2ccc([N+](=O)[O-])cc2)[nH]c1=O (stereo not shown) [Compound 26q] = 5.75

# CC50 at 5 days of COc1ccc(C=CCSc2nc(Cc3c(F)cccc3F)c(C)c(=O)[nH]2)cc1 [Compound 26l] = 3.93

# CC50 at 5 days of CCc1c(Cc2c(Cl)cccc2Cl)nc(SCC=Cc2ccc(OC)cc2)[nH]c1=O [Compound 26e] = 0.19

* * *

- tested_system: reverse transcriptase containing the mutation K103N (Human immunodeficiency virus type 1 group M subtype B, UniProt P03366, K702N)
- Construct: cloning the gene of the mutated RT in an expression vector for prokariotic cells
- method_description: Enzyme test with mutated reverse transcriptase K103N
pIC50: −log10 of the molar value.
readout_label: pIC50

# pIC50 of COc1ccc(C=CCSc2nc(C(C)c3c(Cl)cccc3Cl)c(C)c(=O)[nH]2)cc1 (centres unmarked) [Compound 26g] = < 4.70

# pIC50 of CCc1c(C(C)c2c(F)cccc2F)nc(SCC=Cc2ccc(OC)cc2)[nH]c1=O (centres unmarked) [Compound 26p] = 6.40

* * *

Each entry below carries its reported CC50 at 5 days.
- method_description: Cytotoxicity in mock-infected MT-4 cells (MTT)
- Type: cell-based
- condition_summary: human

# annotated cases, reported CC50 at 5 days shown
Cc1c(Cc2c(Cl)cccc2Cl)nc(SCC=Cc2ccc([N+](=O)[O-])cc2)[nH]c1=O [Compound 26b]    > 10.8 µM
Cc1c(C(C)c2c(F)cccc2F)nc(SCC=Cc2ccc([N+](=O)[O-])cc2)[nH]c1=O (centres unmarked) [Compound 26m]    > 11.3 µM
COc1ccc(/C=C/CSc2nc(Cc3c(Cl)cccc3Cl)c(C)c(=O)[nH]2)cc1 [Compound 26a]    0.96 µM
Cc1c(Cc2c(F)cccc2F)nc(SCC=Cc2ccc([N+](=O)[O-])cc2)[nH]c1=O [Compound 26i]    11.7 µM
C=Cc1cc(N(C)C)nc(SC)n1 [Compound 6c]    57.4 µM

# CC50 at 5 days of C=Cc1nc(S(C)(=O)=O)nc(N(C)C)c1I [Compound 8b] = 22.9 µM

# CC50 at 5 days of Cc1c(Cc2c(Cl)cccc2Cl)nc(SCC=Cc2ccc(N(C)C)cc2)[nH]c1=O [Compound 26d] = > 54.4 µM

# CC50 at 5 days of COc1ccc(C=CCSc2nc(C(C)c3c(F)cccc3F)c(C)c(=O)[nH]2)cc1 (centres unmarked) [Compound 26n] = > 11.7 µM
